The measurements presented in this section are drawn from paper PMC10374545.

Molecular target: STEP (Homo sapiens)
Sequence (P54829 258-539 isoform P54829-3): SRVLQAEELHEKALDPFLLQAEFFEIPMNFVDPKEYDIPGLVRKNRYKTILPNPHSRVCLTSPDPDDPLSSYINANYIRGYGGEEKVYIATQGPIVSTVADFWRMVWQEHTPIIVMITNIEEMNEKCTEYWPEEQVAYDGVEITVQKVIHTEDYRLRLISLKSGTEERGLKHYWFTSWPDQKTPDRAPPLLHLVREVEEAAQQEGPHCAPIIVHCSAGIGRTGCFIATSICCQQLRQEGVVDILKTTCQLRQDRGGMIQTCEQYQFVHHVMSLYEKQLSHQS
pIC50: −log10 of the molar value.
endpoint: pIC50

Req: Quick one: pIC50 of `CC(C)(O)CCOc1ccc2cc(O)c(N3CC(=O)NS3(=O)=O)c(F)c2c1` ?
Resp: < 4.70

----------
Target: SHP-1 (Homo sapiens, UniProt P29350)
Sequence (P29350 245-543): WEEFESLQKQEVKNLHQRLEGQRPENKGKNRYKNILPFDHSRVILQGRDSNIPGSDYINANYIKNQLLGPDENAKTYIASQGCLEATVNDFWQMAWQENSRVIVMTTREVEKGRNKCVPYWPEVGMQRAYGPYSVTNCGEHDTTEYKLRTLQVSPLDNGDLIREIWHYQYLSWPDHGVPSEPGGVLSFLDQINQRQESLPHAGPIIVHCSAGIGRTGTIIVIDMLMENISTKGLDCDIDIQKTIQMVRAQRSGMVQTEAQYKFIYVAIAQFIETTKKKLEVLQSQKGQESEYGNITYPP
endpoint: pIC50
Please report pIC50 as the negative decimal logarithm of the molar concentration, giving only the number.

Req: Quick one: pIC50 of `CC(C)(O)CCOc1ccc2cc(O)c(N3CC(=O)NS3(=O)=O)c(F)c2c1` ?
Resp: 5.04

----------
Target: PTPN2 (Homo sapiens, UniProt P17706)
Sequence (P17706 1-387 isoform P17706-2): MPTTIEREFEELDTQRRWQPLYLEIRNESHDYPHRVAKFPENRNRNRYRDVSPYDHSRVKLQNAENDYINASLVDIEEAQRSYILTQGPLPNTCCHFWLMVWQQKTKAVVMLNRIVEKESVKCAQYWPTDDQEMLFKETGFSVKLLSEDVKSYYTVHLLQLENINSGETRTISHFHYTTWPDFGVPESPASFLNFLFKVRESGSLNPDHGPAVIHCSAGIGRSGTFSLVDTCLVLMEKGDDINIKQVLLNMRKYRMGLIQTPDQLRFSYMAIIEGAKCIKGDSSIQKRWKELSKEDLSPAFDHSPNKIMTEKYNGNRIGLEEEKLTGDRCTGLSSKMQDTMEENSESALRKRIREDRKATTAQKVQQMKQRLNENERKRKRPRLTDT
endpoint: Ki (nM)
I only need the number, in nM, no unit after it.

Req: Quick one: Ki of CC(C)(O)CCOc1ccc2cc(O)c(N3CC(=O)NS3(=O)=O)c(F)c2c1 [Compound 182] ?
Resp: 0.26

----------
Biological target: CDC14A (Homo sapiens, UniProt Q9UNH5)
Construct: CDC14A, residues 1-413; made in house; host or cells: E. coli BL21(DE3)
Sequence (Q9UNH5 1-413): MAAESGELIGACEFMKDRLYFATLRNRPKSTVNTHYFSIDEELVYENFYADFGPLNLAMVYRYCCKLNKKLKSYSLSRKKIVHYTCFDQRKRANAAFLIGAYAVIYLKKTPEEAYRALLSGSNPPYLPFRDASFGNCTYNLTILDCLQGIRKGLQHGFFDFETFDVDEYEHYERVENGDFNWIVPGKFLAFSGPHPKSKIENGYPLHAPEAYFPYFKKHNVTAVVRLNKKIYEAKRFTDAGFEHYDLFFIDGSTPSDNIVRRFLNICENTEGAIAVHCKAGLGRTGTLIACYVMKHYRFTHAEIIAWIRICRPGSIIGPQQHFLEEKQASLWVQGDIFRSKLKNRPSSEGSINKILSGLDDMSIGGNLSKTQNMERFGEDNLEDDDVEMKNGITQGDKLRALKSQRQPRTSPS
Test: PTP selectivity, DiFMUP assay
Type: biochemical
Conditions: DiFMUP at Km
endpoint: IC50 (µM)
I only need the number, in µM, no unit after it.

Req: Recorded IC50 for `CC(C)(O)CCOc1ccc2cc(O)c(N3CC(=O)NS3(=O)=O)c(F)c2c1` with CDC14A (Homo sapiens, UniProt Q9UNH5), please?
Resp: 6.3

----------
Target: PTP1B (Homo sapiens, UniProt P18031)
Sequence (P18031 1-321): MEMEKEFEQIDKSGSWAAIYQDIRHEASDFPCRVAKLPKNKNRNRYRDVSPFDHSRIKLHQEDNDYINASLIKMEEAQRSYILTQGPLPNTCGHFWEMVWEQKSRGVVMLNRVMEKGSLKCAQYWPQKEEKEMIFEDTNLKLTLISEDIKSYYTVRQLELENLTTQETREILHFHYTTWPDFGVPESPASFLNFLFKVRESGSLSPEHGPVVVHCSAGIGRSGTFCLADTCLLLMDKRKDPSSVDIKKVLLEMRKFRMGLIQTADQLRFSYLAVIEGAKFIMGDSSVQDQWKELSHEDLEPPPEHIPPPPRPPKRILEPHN
endpoint: IC50 (nM)
I only need the number, in nM, no unit after it.

Req: Quick one: IC50 of CC(C)CCN[C@@H]1CCc2cc(O)c(N3CC(=O)NS3(=O)=O)c(F)c2C1 [ABBV-CLS-484] ?
Resp: 1.84

----------
Molecular target: PTPN2 (Homo sapiens)
Construct: PTPN2, residues 1-387; made in house; host or cells: E. coli BL21(DE3)
Assay: PTP inhibition assay with DiFMUP substrate (IC50)
Format: biochemical
Details: TC-PTP; DiFMUP 10 μM, pH 7.0, 25 °C
endpoint: pIC50
Please report pIC50 as the negative decimal logarithm of the molar concentration, giving only the number.

Req: Recorded pIC50 for `CC(C)(O)CCOc1ccc2cc(O)c(N3CC(=O)NS3(=O)=O)c(F)c2c1` with PTPN2 (Homo sapiens), please?
Resp: 9.24
